Recorded values, source ChEMBL document CHEMBL4680112.

Biological target: Heat shock protein HSP 90-beta (Homo sapiens, UniProt P08238)
Sequence (P08238 whole entry, the tested form may be a part): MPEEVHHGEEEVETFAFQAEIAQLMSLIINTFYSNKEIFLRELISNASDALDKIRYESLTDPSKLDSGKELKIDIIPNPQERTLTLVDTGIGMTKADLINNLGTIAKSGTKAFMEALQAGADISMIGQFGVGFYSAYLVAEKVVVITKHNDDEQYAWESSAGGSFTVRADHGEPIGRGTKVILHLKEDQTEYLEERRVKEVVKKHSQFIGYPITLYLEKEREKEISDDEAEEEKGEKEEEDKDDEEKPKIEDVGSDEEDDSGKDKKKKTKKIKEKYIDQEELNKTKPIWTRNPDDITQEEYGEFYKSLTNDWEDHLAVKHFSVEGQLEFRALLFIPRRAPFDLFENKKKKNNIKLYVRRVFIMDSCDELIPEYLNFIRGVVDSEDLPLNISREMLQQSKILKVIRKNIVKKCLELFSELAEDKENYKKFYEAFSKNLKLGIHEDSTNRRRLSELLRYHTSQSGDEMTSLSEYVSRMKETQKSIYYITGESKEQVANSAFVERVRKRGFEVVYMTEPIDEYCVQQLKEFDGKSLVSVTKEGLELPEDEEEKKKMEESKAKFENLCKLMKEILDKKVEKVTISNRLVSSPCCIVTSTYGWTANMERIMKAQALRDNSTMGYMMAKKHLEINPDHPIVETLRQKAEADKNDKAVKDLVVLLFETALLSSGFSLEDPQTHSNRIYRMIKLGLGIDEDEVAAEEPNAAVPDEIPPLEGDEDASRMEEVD
Test: Inhibition of C-terminal HSP90beta (527 to 724 residues) (unknown origin) interaction with CYP40 at 1 to 25 uM measured after 30 mins by AlphaLISA assay
Settings: dose 1-25 µM
Calls of active or inactive are those of the source. The rule behind the calls is not given here. Non-standard residues stand in square brackets, D forms with d. Residues, ends and D or L forms follow the SMILES beside them.
# valid calls are true = active, false = inactive; nothing else

Each molecule tested received a call. Report the one for C[C@H]1NC(=O)[C@H](CCCCN)NC(=O)[C@H](Cc2ccccc2)NC(=O)[C@H](Cc2ccc(O)cc2)NC(=O)[C@H](CO)NC1=O .
false

Each molecule tested received a call. Report the one for NCCCC[C@@H]1NC(=O)[C@H](Cc2ccccc2)NC(=O)[C@H](Cc2ccc(O)cc2)NC(=O)[C@H](CO)NC(=O)[C@@H](CC(N)=O)NC1=O (cyclo(FK[dN]SY)) .
false

Each molecule tested received a call. Report the one for NCCCC[C@@H]1NC(=O)[C@H](Cc2ccccc2)NC(=O)[C@H](Cc2ccc(O)cc2)NC(=O)[C@@H](CO)NC(=O)[C@H](CC(N)=O)NC1=O (cyclo(FKN[dS]Y)) .
false

###

Target: UniProt P08238
Test: Inhibition of C-terminal HSP90beta (527 to 724 residues) (unknown origin) interaction with CYP40 at 1 to 25 uM measured after 30 mins by AlphaLISA assay
Settings: dose 1-25 µM
The source made the active and inactive calls. The rule behind the calls is not given here. Non-standard residues stand in square brackets, D forms with d. Residues, ends and D or L forms follow the SMILES beside them.
# valid calls are active, inactive; nothing else

Answered cases to consult:
Each compound tested received a call. Report the one for NCCCC[C@@H]1NC(=O)[C@H](Cc2ccccc2)NC(=O)[C@H](Cc2ccc(O)cc2)NC(=O)[C@H](CO)NC(=O)[C@H](CC(=O)O)NC1=O (cyclo(DSYFK)) .
inactive

Each compound tested received a call. Report the one for NCCCC[C@@H]1NC(=O)[C@@H](Cc2ccccc2)NC(=O)[C@H](Cc2ccc(O)cc2)NC(=O)[C@H](CO)NC(=O)[C@H](CC(N)=O)NC1=O (cyclo(KNSY[dF])) .
inactive

Each compound tested received a call. Report the one for NCCCC[C@@H]1NC(=O)[C@H](Cc2ccccc2)NC(=O)[C@H](Cc2ccc(O)cc2)NC(=O)[C@H](CO)NC(=O)[C@H](Cc2ccccc2)NC1=O (cyclo(FKFSY)) .
active

Each compound tested received a call. Report the one for CC(C)C[C@@H]1NC(=O)[C@H](CCCCN)NC(=O)[C@H](Cc2ccccc2)NC(=O)[C@H](Cc2ccc(O)cc2)NC(=O)[C@H](CO)NC1=O (cyclo(FKLSY)) .
inactive

***
Each compound tested received a call. Report the one for C[C@@H]1NC(=O)[C@H](CC(N)=O)NC(=O)[C@H](CCCCN)NC(=O)[C@H](Cc2ccccc2)NC(=O)[C@H](Cc2ccc(O)cc2)NC1=O (cyclo(AYFKN)) .
active
